meta.source: PubChem BioAssay AID2060611

Documented viability, T/C across a set of compounds
- Tested on: 628569-122-R-J1-PDC complex spheroid viability
- protocol description: Anticancer human tumor 628569-122-R-J1-PDC patient-derived head and neck squamous carcinoma cell line growth inhibition [CLK]
- settings: second compound 0.316 µM; first compound 0.0316 µM; active compounds read low
attribute measured: viability, T/C (%)

>>> numeric_value("COc1c(OCCCN2CCOCC2)ccc2c3n(c(=NC(=O)c4cnc(N)nc4)nc12)CCN3 + CN1CCN(c2cc(C(=O)Nc3cc4cc(-c5cnn(C)c5)ccc4cn3)ccn2)CC1")
11.8
>>> numeric_value("Cn1ncnc1[C@H]1c2n[nH]c(=O)c3cc(F)cc(c23)N[C@@H]1c1ccc(F)cc1 + CNC(=O)c1ccc(Nc2nc(OC3CCCC3)c3c(-c4ccc5nc(C)oc5c4)c[nH]c3n2)c(OC)c1")
54.5
>>> numeric_value("Cn1ncnc1[C@H]1c2n[nH]c(=O)c3cc(F)cc(c23)N[C@@H]1c1ccc(F)cc1 + CN1CCN(c2cc(C(=O)Nc3cc4cc(-c5cnn(C)c5)ccc4cn3)ccn2)CC1")
33
>>> numeric_value("Nc1ccccc1NC(=O)c1ccc(CNC(=O)OCc2cccnc2)cc1 + CN1CCN(c2cc(C(=O)Nc3cc4cc(-c5cnn(C)c5)ccc4cn3)ccn2)CC1")
40.1
>>> numeric_value("CC(CO)NC(=O)c1cc(-c2ccc(Cl)cc2)nn(-c2cnn(C)c2)c1=O (stereo unspecified) + CNC(=O)c1ccc(Nc2nc(OC3CCCC3)c3c(-c4ccc5nc(C)oc5c4)c[nH]c3n2)c(OC)c1")
66.2
>>> numeric_value("O=c1[nH]cc(F)c(=O)[nH]1 + CNC(=O)c1ccc(Nc2nc(OC3CCCC3)c3c(-c4ccc5nc(C)oc5c4)c[nH]c3n2)c(OC)c1")
50.9

----------
- System: 628569-122-R-J1-PDC complex spheroid viability
- protocol description: Anticancer human tumor 628569-122-R-J1-PDC cell line growth inhibition [CLK];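 further: spheroids exposed to agents for seven days before readout; 100% = DMSO vehicle control viability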
- settings: second compound 0.316 µM; first compound 0.0316 µM; active compounds read low
- From the text: A high-throughput screen of multi-cell type tumor spheroids was designed to identify active combinations of […] and targeted small molecules. Complex spheroids include a stromal component modeled by human endothelial cells (HUVEC) and fibroblasts modeled by human mesenchymal stem cells (MSCs). […] Compounds. […] If the clinical Cmax for an agent had not been determined, the highest concentration tested was 10 microM. […]
Listing: viability, T/C of selected compounds
attribute measured: viability, T/C (%)

>>> numeric_value("C#Cc1c(F)ccc2cc(O)cc(-c3ncc4c(N5CC6CCC(C5)N6)nc(OCC56CCCN5CC(F)C6)nc4c3F)c12 (stereo unspecified) + CN1CCN(c2cc(C(=O)Nc3cc4cc(-c5cnn(C)c5)ccc4cn3)ccn2)CC1")
32.3
>>> numeric_value("COc1cccc2c1C(=O)c1c(O)c3c(c(O)c1C2=O)CC(O)(C(=O)CO)CC3OC1CC(N)C(O)C(C)O1 (stereo unspecified) + CN1CCN(c2cc(C(=O)Nc3cc4cc(-c5cnn(C)c5)ccc4cn3)ccn2)CC1")
36.8
>>> numeric_value("C=C(F)C(=O)N1CCN(c2nc(OCC3CCCN3C)nc3c2CCN(c2cccc4cccc(Cl)c24)C3)CC1CC#N (stereo unspecified) + CNC(=O)c1ccc(Nc2nc(OC3CCCC3)c3c(-c4ccc5nc(C)oc5c4)c[nH]c3n2)c(OC)c1")
54.6
>>> numeric_value("COC1C=CCC(C)C(C)S(=O)(=O)NC(=O)c2ccc3c(c2)N(CC2CCC21)CC1(CCCc2cc(Cl)ccc21)CO3 (stereo unspecified) + CNC(=O)c1ccc(Nc2nc(OC3CCCC3)c3c(-c4ccc5nc(C)oc5c4)c[nH]c3n2)c(OC)c1")
46.3
>>> numeric_value("COC1C=CCC(C)C(C)S(=O)(=O)NC(=O)c2ccc3c(c2)N(CC2CCC21)CC1(CCCc2cc(Cl)ccc21)CO3 (stereo unspecified) + CN1CCN(c2cc(C(=O)Nc3cc4cc(-c5cnn(C)c5)ccc4cn3)ccn2)CC1")
36.8
>>> numeric_value("C=C(F)C(=O)N1CCN(c2nc(OCC3CCCN3C)nc3c2CCN(c2cccc4cccc(Cl)c24)C3)CC1CC#N (stereo unspecified) + CN1CCN(c2cc(C(=O)Nc3cc4cc(-c5cnn(C)c5)ccc4cn3)ccn2)CC1")
35
>>> numeric_value("O=c1[nH]cc(F)c(=O)[nH]1 + CN1CCN(c2cc(C(=O)Nc3cc4cc(-c5cnn(C)c5)ccc4cn3)ccn2)CC1")
35.7
>>> numeric_value("COc1cccc2c1C(=O)c1c(O)c3c(c(O)c1C2=O)CC(O)(C(=O)CO)CC3OC1CC(N)C(O)C(C)O1 (stereo unspecified) + CNC(=O)c1ccc(Nc2nc(OC3CCCC3)c3c(-c4ccc5nc(C)oc5c4)c[nH]c3n2)c(OC)c1")
47
>>> numeric_value("O=C(c1cc(Cc2n[nH]c(=O)c3ccccc23)ccc1F)N1CCN(C(=O)C2CC2)CC1 + CNC(=O)c1ccc(Nc2nc(OC3CCCC3)c3c(-c4ccc5nc(C)oc5c4)c[nH]c3n2)c(OC)c1")
50.8
>>> numeric_value("CC1(C)CCC(CN2CCN(c3ccc(C(=O)NS(=O)(=O)c4ccc(NCC5CCOCC5)c([N+](=O)[O-])c4)c(Oc4cnc5[nH]ccc5c4)c3)CC2)=C(c2ccc(Cl)cc2)C1 + CN1CCN(c2cc(C(=O)Nc3cc4cc(-c5cnn(C)c5)ccc4cn3)ccn2)CC1")
36.1
>>> numeric_value("C=CC(=O)N1CCN(c2nc(=O)n(-c3c(C)ccnc3C(C)C)c3nc(-c4c(O)cccc4F)c(F)cc23)C(C)C1 (stereo unspecified) + CN1CCN(c2cc(C(=O)Nc3cc4cc(-c5cnn(C)c5)ccc4cn3)ccn2)CC1")
32.5
>>> numeric_value("CCc1c2c(nc3ccc(O)cc13)-c1cc3c(c(=O)n1C2)COC(=O)[C@]3(O)CC + CNC(=O)c1ccc(Nc2nc(OC3CCCC3)c3c(-c4ccc5nc(C)oc5c4)c[nH]c3n2)c(OC)c1")
42.8
>>> numeric_value("O=C(c1cc(Cc2n[nH]c(=O)c3ccccc23)ccc1F)N1CCN(C(=O)C2CC2)CC1 + CN1CCN(c2cc(C(=O)Nc3cc4cc(-c5cnn(C)c5)ccc4cn3)ccn2)CC1")
34.6
>>> numeric_value("CC(Nc1ccc2c(c1)OCCn1cc(N3C(=O)OCC3C(F)F)nc1-2)C(N)=O (stereo unspecified) + CNC(=O)c1ccc(Nc2nc(OC3CCCC3)c3c(-c4ccc5nc(C)oc5c4)c[nH]c3n2)c(OC)c1")
41
>>> numeric_value("CCCS(=O)(=O)Nc1ccc(F)c(C(=O)c2c[nH]c3ncc(-c4ccc(Cl)cc4)cc23)c1F + CN1CCN(c2cc(C(=O)Nc3cc4cc(-c5cnn(C)c5)ccc4cn3)ccn2)CC1")
37.9
>>> numeric_value("Nc1ccccc1NC(=O)c1ccc(CNC(=O)OCc2cccnc2)cc1 + CNC(=O)c1ccc(Nc2nc(OC3CCCC3)c3c(-c4ccc5nc(C)oc5c4)c[nH]c3n2)c(OC)c1")
50.8
>>> numeric_value("COc1c(OCCCN2CCOCC2)ccc2c3n(c(=NC(=O)c4cnc(N)nc4)nc12)CCN3 + CNC(=O)c1ccc(Nc2nc(OC3CCCC3)c3c(-c4ccc5nc(C)oc5c4)c[nH]c3n2)c(OC)c1")
29.8
>>> numeric_value("Nc1ccn(C2OC(CO)C(O)C2(F)F)c(=O)n1 (stereo unspecified) + CNC(=O)c1ccc(Nc2nc(OC3CCCC3)c3c(-c4ccc5nc(C)oc5c4)c[nH]c3n2)c(OC)c1")
49.9
>>> numeric_value("COc1ccc([C@@H](O)c2cc(-c3ncnc4cc(N5CCOCC5)ccc34)c(F)cc2Cl)nn1 + CNC(=O)c1ccc(Nc2nc(OC3CCCC3)c3c(-c4ccc5nc(C)oc5c4)c[nH]c3n2)c(OC)c1")
47.5
>>> numeric_value("COc1ccc([C@@H](O)c2cc(-c3ncnc4cc(N5CCOCC5)ccc34)c(F)cc2Cl)nn1 + CN1CCN(c2cc(C(=O)Nc3cc4cc(-c5cnn(C)c5)ccc4cn3)ccn2)CC1")
27.4
>>> numeric_value("CCN1CCN(Cc2ccc(Nc3ncc(F)c(-c4cc(F)c5nc(C)n(C(C)C)c5c4)n3)nc2)CC1 + CN1CCN(c2cc(C(=O)Nc3cc4cc(-c5cnn(C)c5)ccc4cn3)ccn2)CC1")
48.1
